Reported SPOT peptide array binding signal intensity values for a set of binders
Molecular target: AgFus1
Assay: SPOT peptide array binding signal intensity (averaged, normalized) (arbitrary units (background-subtracted, floor 0; scale differs between SH3 domains)); higher = stronger binding of the SH3 domain to the peptide
Lab note: jot the number down without any unit.

Some binders with recorded SPOT peptide array binding signal intensity:
Data request: // lookup SPOT peptide array binding signal intensity for "RSVKRPRRAPRPVVS"
Data returned: 372

Data request: Would you mind telling me what SPOT peptide array binding signal intensity value was observed for "GTIARPLFLVVLFFI" ?
Data returned: 1900

Data request: // lookup SPOT peptide array binding signal intensity for "ITHRLRISIPGITGR"
Data returned: 1770

Data request: Record request: SPOT peptide array binding signal intensity value, item "ALRRRLPVTRSKINW"
Data returned: 583

Continuing:
Data request: Can you look up the measured SPOT peptide array binding signal intensity of "RLSRLLLSLPPESFT" for me?
Data returned: 878

Data request: Sample "KWVRRPKLMTPLTFS" — what was its SPOT peptide array binding signal intensity?
Data returned: 754

Data request: Param item = "GDHPKGPPPPPPPDE" ; retrieve measured SPOT peptide array binding signal intensity.
Data returned: 3.5

Data request: Reported SPOT peptide array binding signal intensity, binder "VRTRRRPPPPPIPST" : ____
Data returned: 30

Data request: SPOT peptide array binding signal intensity for "SKIRPTPRKPSRMAT" ?
Data returned: 40
